The following compounds are shown together with reported TD50 values.
Protocol Description: Audiogenic convulsive side effects (sound challenge: tonic convulsions and fatalities)
Condition: mouse, in vivo, ip
Give the number; mg/kg is assumed, so skip it.

Previously resolved entries follow.
| Smiles Repr | TD50, mg/kg |
| --- | --- |
| Cc1c(N2CCCCC2)nn2c(C)nnc2c1C | 141 |
| Cc1c(N2CCCCC2)nn2cnnc2c1C | 404 |
| Cc1cc2nncn2nc1N1CCN(C)CC1 | 116 |
| Cc1nnc2c3c(c(N4CCN(C)CC4)nn12)C1CCC3CC1 | 147 |

Continue with the next compound.
Query: // fetch TD50 given entry Cc1nnc2c3c(c(N4CCCC4)nn12)C1CCC3CC1
Response: 141

----------
Protocol Description: in vivo
Condition: mouse, ip
Procedure: The interaction of sound with the convulsive threshold of drugs is a known phenomenon which can be used to evaluate such side effects. […] In the test operations, mice are administered a test compound by intraperitoneal injection at various dosages, and the number of mice showing tonic convulsions and the number of fatalities occurring within 30 minutes is recorded. […]
Criterion: TD50 strictly less than 100 mg/kg. Met: satisfied. Not met: not satisfied.

| Molecule | Class Assignment |
| --- | --- |
| Cc1nnc2c3c(c(N4CCCCC4)nn12)CCCC3 | not satisfied |
| c1nnc2c3c(c(N4CCCC4)nn12)C1CCC3C1 (centres unmarked) | satisfied |
| c1nnc2c3c(c(N4CCCCC4)nn12)CCCC3 | not satisfied |
| CN1CCN(c2nn3cnnc3c3c2C2CCC3CC2)CC1 | not satisfied |

Shifting focus to the molecule that follows.
Query: Is TD50 strictly under 100 mg/kg for the entry c1nnc2c3c(c(N4CCCCC4)nn12)C1CCC3C1 (centres unmarked) ?
Response: satisfied

----------
The following compounds are shown together with reported TD50 values.
Protocol Description: Audiogenic convulsive side effects (sound challenge: tonic convulsions and fatalities)
Condition: mouse, in vivo, ip
Give the number; mg/kg is assumed, so skip it.

| Compound | TD50 (mg/kg) |
| --- | --- |
| c1ccc(-c2nnc3ccc(N4CCOCC4)nn23)cc1 [reference compound] | 5 |
| Cc1c(N2CCOCC2)nn2cnnc2c1C [R7 Methyl; R3 H; R8 CH3; R6 Morpholino] | 272 |
| Cc1c(N2CCCC2)nn2cnnc2c1C | 277 |

Continue with the next compound.
Query: // fetch TD50 given entry Cc1nnc2c3c(c(N4CCN(C)CC4)nn12)C1CCC3C1 (stereo not shown) [Example 13]
Response: 147

----------
Protocol Description: Audiogenic convulsive side effects (sound challenge: tonic convulsions and fatalities)
Condition: mouse, in vivo, ip
Readout Label: log10 LD50 (log10 of the value in mg/kg)
All values: base-10 log of LD50 in mg/kg.

Previously resolved entries follow.
| Compound | Meas Value |
| --- | --- |
| c1ccc(-c2nnc3ccc(N4CCOCC4)nn23)cc1 [reference compound] | 1.48 |
| c1nnc2c3c(c(N4CCCC4)nn12)C1CCC3C1 (stereo not drawn) | 2.00 |
| c1nnc2c3c(c(N4CCOCC4)nn12)C1CCC3CC1 | 1.93 |
| Cc1c(N2CCCCC2)nn2c(C)nnc2c1C | 2.15 |
| Cc1cc2nncn2nc1N1CCN(C)CC1 | 2.15 |
| Cc1cc2nnc(C)n2nc1N1CCCCC1 | 2.51 |
| CN1CCN(c2nn3cnnc3c3c2C2CCC3C2)CC1 (stereo not drawn) | 2.17 |
| c1nnc2c3c(c(N4CCCCC4)nn12)CCCC3 | 2.47 |

Query: // fetch log10 LD50 given entry c1nnc2c3c(c(N4CCCC4)nn12)CCCC3
Response: 2.23

Query: // fetch log10 LD50 given entry Cc1nnc2c3c(c(N4CCOCC4)nn12)CCCC3
Response: 2.10

Query: // fetch log10 LD50 given entry CN1CCN(c2nn3cnnc3c3c2C2CCC3CC2)CC1
Response: 2.17

Query: // fetch log10 LD50 given entry c1nnc2c3c(c(N4CCCC4)nn12)C1CCC3CC1
Response: 2.07

Query: // fetch log10 LD50 given entry Cc1nnc2c3c(c(N4CCCC4)nn12)C1CCC3CC1
Response: 2.15

Query: // fetch log10 LD50 given entry Cc1nnc2c3c(c(N4CCOCC4)nn12)C1CCC3C1 (stereo not drawn)
Response: 1.87

Query: // fetch log10 LD50 given entry Cc1c(N2CCCCC2)nn2cnnc2c1C
Response: 2.61
